# measurement-target: APOL1 G2 (Homo sapiens, UniProt O14791, DEL388-389)
# Construct: expressed in transfected cells; host or cells: HEK293 T-REx clonal line stably expressing GCaMP6f (HEK T-REx/GCaMP6f/APOL1 G2 K6.3), doxycycline induced
# Sequence (O14791 with tags, fused parts or gaps DEL388-389): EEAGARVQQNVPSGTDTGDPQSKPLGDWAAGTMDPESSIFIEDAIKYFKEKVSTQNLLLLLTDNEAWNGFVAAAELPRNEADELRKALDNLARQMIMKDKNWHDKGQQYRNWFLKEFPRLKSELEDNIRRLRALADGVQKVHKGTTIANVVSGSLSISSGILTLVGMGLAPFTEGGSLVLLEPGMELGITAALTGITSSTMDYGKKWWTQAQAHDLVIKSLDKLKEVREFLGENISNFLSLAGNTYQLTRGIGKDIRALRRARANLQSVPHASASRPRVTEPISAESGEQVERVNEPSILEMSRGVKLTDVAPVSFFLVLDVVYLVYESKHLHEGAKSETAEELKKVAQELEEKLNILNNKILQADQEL
# test-description: APOL1-mediated calcium transport (calcium influx) assay, HEK T-REx/GCaMP6f/APOL1 G2 K6.3 cells, FLIPR TETRA
# Assay type: cell-based
# reported-conditions: prevention of calcium influx; geometric mean of at least 2 assay runs; † = average of a technical replicate from a single assay run
experimental-endpoint: AC50

Ask: Consider the compound Cc1n[nH]cc1-c1ccc(OCCN2CCC3(CC2)C(=O)Nc2ccc(Cl)cc23)cc1 and give its recorded AC50.
Reply: 1060 nM

Ask: Supply recorded AC50 for C[C@]1(O)C[C@@H](n2c(=O)ccc3cc(OCCN4CCC5(CC4)C(=O)Nc4ccc(Cl)cc45)cnc32)C1 here.
Reply: 400 nM

Ask: Specify reported AC50 for the compound shown: O=C1CCc2cc(OCCN3CCC4(CC3)C(=O)Nc3ccc(Cl)cc34)ccc2N1[C@H]1C[C@H](O)C1
Reply: 830 nM

Ask: Identify AC50 associated with the compound CS(=O)(=O)C1(c2ccc(OCCN3CCC4(CC3)C(=O)Nc3ccc(C#N)cc34)cc2)CCOCC1
Reply: 1220 nM

Ask: Output measured AC50 for this item: [2H]C([2H])([2H])N1C(=O)C2(CCN(CCOc3ccc4c(c3)CN(C)C4=O)CC2)c2cc(Cl)ccc21
Reply: 449 nM

Ask: Return reported AC50. Input compound: CS(=O)(=O)c1ccc(OCCN2CCC3(CC2)C(=O)Nc2ccc(Cl)cc23)cc1C(O)CO (stereo not shown)
Reply: 3140 nM

Kindly review the next compound as well.
Ask: State its AC50 for this compound: CN(C)C(=O)c1ccc(OCCN2CCC3(CC2)C(=O)Nc2ccc(Cl)cc23)cn1
Reply: 953 nM
